Reported values of CC50 for individual entries
# METHOD_SUMMARY: Acute toxicity, Alamar blue cell viability, NIH 3T3
# Assay type: cell-based
# PARTICULARS: mouse
The figure you give is taken to be in µM; do not add the unit.

For orientation, consider the following solved cases.
STRUCTURE_NOTATION: Cc1c(N(C)C2CCCCC2)nc2nc(N)nc(N)c2c1C
UNITS: µM
CC50: 10.9
//
STRUCTURE_NOTATION: Cc1cc(N2CCCc3ccccc32)nc2nc(N)nc(N)c12
UNITS: µM
CC50: 11.5
//
STRUCTURE_NOTATION: Cc1c(Cc2ccccc2)c(N(C)C2CCCCC2)nc2nc(N)nc(N)c12
UNITS: µM
CC50: 5.13
//
STRUCTURE_NOTATION: Cc1c(C2CCCC2)c(NCc2ccc(F)c(F)c2)nc2nc(N)nc(N)c12
UNITS: µM
CC50: 2.67

Now look at this entry.
(Q) Note CC50 for the compound shown: `CN(c1nc2nc(N)nc(N)c2c2c1CCCC2)C1CCCCC1`
(A) 1.37
